- System: PXR:RXRa (NR concentration 270 nM, RXRa partner concentration 90 nM)
- assay: PBM binding z-score (relative to random genomic background probes); higher = stronger binding; sequences stand for … in GC…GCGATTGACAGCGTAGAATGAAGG
Classification field: rule met = PBM binding z-score at or over 2; rule not met = PBM binding z-score under 2.

Solved cases (4 shown):
>>> classname("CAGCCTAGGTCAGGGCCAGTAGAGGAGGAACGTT")
"rule not met"
>>> classname("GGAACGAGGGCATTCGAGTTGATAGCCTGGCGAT")
"rule met"
>>> classname("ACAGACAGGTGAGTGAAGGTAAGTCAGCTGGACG")
"rule not met"
>>> classname("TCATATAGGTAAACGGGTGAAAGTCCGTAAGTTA")
"rule not met"

PBM binding z-score >= 2 for `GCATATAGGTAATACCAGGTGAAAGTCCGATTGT` ? rule not met

PBM binding z-score >= 2 for `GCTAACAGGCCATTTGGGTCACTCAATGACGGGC` ? rule not met

PBM binding z-score >= 2 for `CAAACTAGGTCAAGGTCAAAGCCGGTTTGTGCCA` ? rule met
